Biological target: Thyroid hormone receptor alpha (Homo sapiens)
Sequence (P10827 whole entry): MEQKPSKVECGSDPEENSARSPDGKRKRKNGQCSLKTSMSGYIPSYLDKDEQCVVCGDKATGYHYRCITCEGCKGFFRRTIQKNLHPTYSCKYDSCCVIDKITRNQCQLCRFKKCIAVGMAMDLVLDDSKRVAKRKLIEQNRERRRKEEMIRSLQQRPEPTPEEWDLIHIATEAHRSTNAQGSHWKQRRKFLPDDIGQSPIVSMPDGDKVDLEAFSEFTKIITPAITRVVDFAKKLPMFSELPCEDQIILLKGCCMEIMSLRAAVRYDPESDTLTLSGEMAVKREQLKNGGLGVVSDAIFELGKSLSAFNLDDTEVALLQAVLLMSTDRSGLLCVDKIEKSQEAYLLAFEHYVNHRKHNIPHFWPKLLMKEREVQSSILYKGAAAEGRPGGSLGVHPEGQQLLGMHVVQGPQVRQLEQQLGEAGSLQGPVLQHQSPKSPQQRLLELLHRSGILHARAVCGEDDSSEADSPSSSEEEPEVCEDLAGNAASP
pKi: −log10 of the molar value.
experimental_endpoint: pKi

| compound | subject_of_test | pKi |
| --- | --- | --- |
| C#C[C@]1(O)CC[C@H]2[C@@H]3CCC4=CC(=O)CCC4=C3[C@@H](c3ccc(N(C)CCCC(=O)N(C)C4CC[C@@]5(C)[C@@H](C4)C[C@@H](O)[C@@H]4[C@@H]5C[C@H](O)[C@]5(C)[C@@H]([C@H](C)CCC(=O)O)CC[C@@H]45)cc3)C[C@@]21C (some centres not stated) | Thyroid hormone receptor alpha (Homo sapiens) | < 5.90 |

# ---- query compound ----
What measured pKi is associated with C#C[C@]1(O)CC[C@H]2[C@@H]3CCC4=CC(=O)CCC4=C3[C@@H](c3ccc(N(C)CCOC4CC[C@@]5(C)[C@@H](C4)C[C@@H](O)[C@@H]4[C@@H]5C[C@H](O)[C@]5(C)[C@@H]([C@H](C)CCC(=O)NCCS(=O)(=O)O)CC[C@@H]45)cc3)C[C@@]21C (some centres not stated) on Thyroid hormone receptor alpha (Homo sapiens)?
< 5.90

====

biological target: Glucocorticoid receptor (Homo sapiens, UniProt P04150); assay: Inhibition of glucocorticoid receptor dependent alkaline phosphatase activity; type: functional
Sequence (P04150 whole entry): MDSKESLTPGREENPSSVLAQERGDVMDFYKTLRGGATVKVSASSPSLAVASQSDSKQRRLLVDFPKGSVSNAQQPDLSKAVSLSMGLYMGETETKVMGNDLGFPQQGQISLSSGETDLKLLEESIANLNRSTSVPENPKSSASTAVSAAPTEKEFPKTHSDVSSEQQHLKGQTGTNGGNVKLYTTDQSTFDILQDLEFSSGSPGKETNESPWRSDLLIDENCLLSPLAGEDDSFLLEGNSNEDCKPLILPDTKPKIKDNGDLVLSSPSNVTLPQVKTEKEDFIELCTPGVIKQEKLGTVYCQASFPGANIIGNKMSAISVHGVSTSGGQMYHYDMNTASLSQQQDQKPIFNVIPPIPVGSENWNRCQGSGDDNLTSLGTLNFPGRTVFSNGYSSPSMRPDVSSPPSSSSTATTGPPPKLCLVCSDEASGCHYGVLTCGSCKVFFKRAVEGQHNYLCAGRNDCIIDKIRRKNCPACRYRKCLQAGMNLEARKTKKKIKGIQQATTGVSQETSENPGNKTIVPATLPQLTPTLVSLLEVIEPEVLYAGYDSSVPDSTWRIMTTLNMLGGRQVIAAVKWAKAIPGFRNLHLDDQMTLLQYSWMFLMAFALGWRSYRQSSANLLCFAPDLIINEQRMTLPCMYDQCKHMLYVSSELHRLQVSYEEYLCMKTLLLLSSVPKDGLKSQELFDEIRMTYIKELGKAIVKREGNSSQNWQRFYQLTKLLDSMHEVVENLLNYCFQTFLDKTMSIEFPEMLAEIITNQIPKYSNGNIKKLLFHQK
experimental_endpoint: Ki (nM)

| compound | output_unit | Ki |
| --- | --- | --- |
| C#C[C@]1(O)CC[C@H]2[C@@H]3CCC4=CC(=O)CCC4=C3[C@@H](c3ccc(N(C)CCCC(=O)N(C)C4CC[C@@]5(C)[C@@H](C4)C[C@@H](O)[C@@H]4[C@@H]5C[C@H](O)[C@]5(C)[C@@H]([C@H](C)CCC(=O)O)CC[C@@H]45)cc3)C[C@@]21C (some centres undefined) | nM | 1.2 |
| C#C[C@]1(O)CC[C@H]2[C@@H]3CCC4=CC(=O)CCC4=C3[C@@H](c3ccc(N(C)C(C)=O)cc3)C[C@@]21C | nM | 1.4 |
| C#C[C@]1(O)CC[C@H]2[C@@H]3CCC4=CC(=O)CCC4=C3[C@@H](c3ccc(N(C)CCC[C@@]4(O)CC[C@@]5(C)[C@H](C[C@@H](O)[C@@H]6[C@@H]5C[C@H](O)[C@]5(C)[C@@H]([C@H](C)CCC(=O)O)CC[C@@H]65)C4)cc3)C[C@@]21C | nM | 4.3 |

1: C#C[C@]1(O)CC[C@H]2[C@@H]3CCC4=CC(=O)CCC4=C3[C@@H](c3ccc(N(C)CCC[C@H]4[C@H](O)CC[C@@]5(C)[C@@H]4C[C@@H](O)[C@@H]4[C@@H]5C[C@H](O)[C@]5(C)[C@@H]([C@H](C)CCC(=O)O)CC[C@@H]45)cc3)C[C@@]21C
2: C#C[C@]1(O)CC[C@H]2[C@@H]3CCC4=CC(=O)CCC4=C3[C@@H](c3ccc(N(C)CCOC4CC[C@@]5(C)[C@H](CC[C@@H]6[C@@H]5CC[C@]5(C)[C@@H]([C@H](C)CCC(=O)O)CC[C@@H]65)C4)cc3)C[C@@]21C (some centres undefined)
Identify the entry with the smaller Ki: 1 or 2 . # answer = label of selected item
2
(2: 2.7 nM, 1: 52 nM)
